protocolText: Inhibition of NS5A in HCV genotype-1a infected in human HuH7 cells by luciferase reporter gene assay
Format: cell-based, Hepatitis C virus subtype 1a
conditionDescription: Hepatitis C virus, Huh-7
pEC50 values by entry
// scale note: pEC50 = -log10(conc_M); give the bare number

Example compounds with recorded pEC50:
{"columns": ["chemSmiles", "pEC50"],
 "data": [
  ["CC[C@H](C)[C@H](NC(=O)OC)C(=O)N1CCC[C@H]1c1ncc(-c2ccc([C@H]3CC[C@H](c4cnc([C@@H]5CCCN5C(=O)[C@@H](NC(=O)OC)[C@@H](C)CC)[nH]4)CC3)cc2)[nH]1", 8.39],
  ["COC(=O)N[C@H](C(=O)N[C@@H](C)c1ncc(-c2cc(F)c(N3CCC(c4cnc([C@@H]5CCCN5C(=O)[C@@H](NC(=O)OC)C(C)C)[nH]4)CC3)c(F)c2)[nH]1)C(C)C", 7.41],
  ["COC(=O)N[C@H](C(=O)N[C@H](c1ncc(C2CCN(c3c(F)cc(-c4cnc([C@@H]5CCCN5C(=O)[C@@H](NC(=O)OC)C(C)C)[nH]4)cc3F)CC2)[nH]1)C(C)C)C(C)C", 7.60]
]}

### Prompt Please give the measured pEC50 for this compound: "COC(=O)N[C@H](C(=O)N1CCC[C@H]1c1ncc([C@H]2CC[C@H](c3ccc(-c4cnc([C@@H]5CCCN5C(=O)[C@H](NC(=O)OC)c5ccccc5)[nH]4)cc3)CC2)[nH]1)C(C)C"
### Response 8.36

Data provenance: ChEMBL document CHEMBL3351465
